Each recorded value in this set is attributed to patent US7378498B2.

System: GST-mGluR5 or GST-Shank3 (residues 1143-1408)
Assay protocol: GST pull-down binding of Homer EVH1 point mutants
Set-up: key: wild-type (+); (−) indicates substantially reduced binding relative to wild-type (+)
Particulars: GST pull-down of myc-tagged mutants from HEK293 lysates, relative to wild-type
Parameter measured: Binding

The examples below pair each entry with its known result.
Molecule | Value observed
N64G: point mutant of the Homer EVH1 domain (protein, left off: small tags and cut ends, point mutant of the Homer EVH1 domain) MGEQPIFSTRAHVFQIDPNTKKNWVPTSKHAVTVSYFYDSTRNVYRIISLDGSKAIINSTITPGMTFTKTSQKFGQWADSRANTVYGLGFSSEHHLSKFAEKFQEFKEAARLAKEKSQEK | +
S28A: point mutant of the Homer EVH1 domain (protein, left off: small tags and cut ends, point mutant of the Homer EVH1 domain) MGEQPIFSTRAHVFQIDPNTKKNWVPTAKHAVTVSYFYDSTRNVYRIISLDGSKAIINSTITPNMTFTKTSQKFGQWADSRANTVYGLGFSSEHHLSKFAEKFQEFKEAARLAKEKSQEK | −
N58A: point mutant of the Homer EVH1 domain (protein, left off: small tags and cut ends, point mutant of the Homer EVH1 domain) MGEQPIFSTRAHVFQIDPNTKKNWVPTSKHAVTVSYFYDSTRNVYRIISLDGSKAIIASTITPNMTFTKTSQKFGQWADSRANTVYGLGFSSEHHLSKFAEKFQEFKEAARLAKEKSQEK | +
F7R: point mutant of the Homer EVH1 domain (protein, left off: small tags and cut ends, point mutant of the Homer EVH1 domain) MGEQPIRSTRAHVFQIDPNTKKNWVPTSKHAVTVSYFYDSTRNVYRIISLDGSKAIINSTITPNMTFTKTSQKFGQWADSRANTVYGLGFSSEHHLSKFAEKFQEFKEAARLAKEKSQEK | +
I48A: point mutant of the Homer EVH1 domain (protein, left off: small tags and cut ends, point mutant of the Homer EVH1 domain) MGEQPIFSTRAHVFQIDPNTKKNWVPTSKHAVTVSYFYDSTRNVYRIASLDGSKAIINSTITPNMTFTKTSQKFGQWADSRANTVYGLGFSSEHHLSKFAEKFQEFKEAARLAKEKSQEK | +

Here's the next entry for you.
Dear colleague, I am looking for the recorded Binding of the following molecule: S8L: point mutant of the Homer EVH1 domain (protein, left off: small tags and cut ends, point mutant of the Homer EVH1 domain) MGEQPIFLTRAHVFQIDPNTKKNWVPTSKHAVTVSYFYDSTRNVYRIISLDGSKAIINSTITPNMTFTKTSQKFGQWADSRANTVYGLGFSSEHHLSKFAEKFQEFKEAARLAKEKSQEK −
